Molecular target: recombinant, membrane-bound mPGES-1 (Homo sapiens, UniProt O14684)
Sequence (O14684 1-152): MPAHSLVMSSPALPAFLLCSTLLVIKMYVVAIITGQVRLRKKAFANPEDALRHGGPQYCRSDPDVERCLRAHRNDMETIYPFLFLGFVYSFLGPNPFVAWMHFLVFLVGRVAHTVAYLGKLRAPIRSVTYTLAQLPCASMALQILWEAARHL
Test: Thiobarbituric acid assay (TBA-MDA assay), inhibition of mPGES-1
Settings: remaining PGH2 measured at 535 nm
Kindly supply the reported IC50 values for the records listed here.
Answer format: number, then unit.

IC50 reading for O=C(Nc1ccc2ccccc2n1)c1cccc(NC(=O)c2ccccc2Br)c1 : 140 nM

IC50 reading for C[C@@H](NC(=O)c1cccc(NC(=O)c2ccccc2Br)c1)c1cccc2ccccc12 : 380 nM

IC50 reading for O=C(Nc1nc2ccccc2[nH]1)c1cccc(NC(=O)c2ccccc2Cl)c1 : 1300 nM
